Reported IC50 values for a set of compounds
MEASUREMENT TARGET: HIV-1 pNL4-3 integrase (Human immunodeficiency virus type 1 group M subtype B (isolate NY5) (HIV-1))
MEASUREMENT NOTES: Determination of enzyme (HIV integrase) inhibitory activity
REPORTED CONDITIONS: calculated from inhibition rate (fluorescence)

# COMPOUND, IC50
measured = [
    ("CCOC[C@H]1CN(C(C)(C)C)C(=O)c2c(O)c(=O)c(-c3nnc(Cc4ccc(F)cc4)s3)cn21", "0.015 µM"),
    ("CC(C)N1CC(C)(C(=O)N(C)C)n2cc(-c3ncc(Cc4ccc(F)cc4)s3)c(=O)c(O)c2C1=O (stereo not shown)", "0.019 µM"),
    ("COC[C@H]1[C@@H](C)N(CC2CC2)C(=O)c2c(O)c(=O)c(-c3nnc(Cc4ccc(F)cc4)s3)cn21", "0.009 µM"),
    ("CN(C)C(=O)[C@@]1(C)CN(C)C(=O)c2c(O)c(=O)c(-c3nnc(Cc4ccc(F)cc4F)s3)cn21", "0.0098 µM"),
]

----------
MEASUREMENT TARGET: HIV-1 pNL4-3 integrase (Human immunodeficiency virus type 1 group M subtype B (isolate NY5) (HIV-1))
MEASUREMENT NOTES: Determination of enzyme (HIV integrase) inhibitory activity
REPORTED CONDITIONS: calculated from inhibition rate (fluorescence)
Text: The following explains evaluation methods of the HIV integrase inhibitory activity of the compound of the present invention. A full-length gene sequence (Accession No.: M19921) of HIV-1 pNL4-3 integrase was inserted into restriction enzyme Nde I and Xho I sites of plasmid pET21a(+) (manufactured by Novagen) to construct an integrase expression vector pET21a-IN-Wild type. […]
Reported IC50 values for a set of molecules

# MOLECULE, UOM, IC50
data = [
    ("CC[C@]1(C(=O)N2CCC2)CN(C(C)C)C(=O)c2c(O)c(=O)c(-c3nnc(Cc4ccc(F)cc4)s3)cn21 [Example 392]", "nM", 11),
    ("CC(C)N1C(=O)c2c(O)c(=O)c(-c3nnc(Cc4ccc(F)cc4)s3)cn2C[C@@]1(C)C(=O)NC(C)(C)C [Example 309]", "nM", 8.8),
    ("CC(C)N1C(=O)c2c(O)c(=O)c(-c3nnc(Cc4ccc(F)cc4)s3)cn2C[C@H]1CN(C)C(=O)C(C)(C)C [Example 182]", "nM", 9.7),
    ("CC(C)[C@H]1CN(C(C)C)C(=O)c2c(O)c(=O)c(-c3nnc(Cc4ccc(F)cc4)s3)cn21 [Example 194]", "nM", 8.2),
    ("COCC1Cn2cc(-c3nnc(Cc4ccc(F)cc4F)s3)c(=O)c(O)c2C(=O)N1CC(C)C (centres unmarked) [Example 43]", "nM", 4.6),
    ("C[C@H](C1CC1)N1C[C@](C)(C(=O)N2CCC2)n2cc(-c3ncc(Cc4ccc(F)cc4)s3)c(=O)c(O)c2C1=O [Example 280]", "nM", 16),
    ("CC(C)N1C[C@](C)(C(=O)N2CCC2)n2cc(-c3nnc(Cc4ccc(F)cc4)s3)c(=O)c(O)c2C1=O [Example 2]", "nM", 13),
    ("COC[C@H]1CN(C(C)C)C(=O)c2c(O)c(=O)c(-c3nnc(Cc4cccc(Cl)c4)s3)cn21 [Example 228]", "nM", 11),
    ("CC(=O)NC[C@H]1Cn2cc(-c3nnc(Cc4ccc(F)cc4F)s3)c(=O)c(O)c2C(=O)N1C(C)C [Example 140]", "nM", 5.8),
    ("CC(C)N1CC(CC(=O)O)n2cc(-c3ncc(Cc4ccc(F)cc4F)s3)c(=O)c(O)c2C1=O (centres unmarked) [Example 33]", "nM", 6.2),
    ("CCNC(=O)[C@]1(C)CN(C2CC2)C(=O)c2c(O)c(=O)c(-c3ncc(Cc4ccc(F)cc4)s3)cn21 [Example 267]", "nM", 11),
    ("CC(C)N1C(=O)c2c(O)c(=O)c(-c3nnc(Cc4ccc(F)cc4F)s3)cn2C[C@H]1CO [Example 133]", "nM", 7.4),
    ("CC(C)N1C[C@@](C)(C(=O)N2CCC2)n2cc(-c3ncc(Cc4ccc(F)cc4)s3)c(=O)c(O)c2C1=O [Example 223]", "nM", 12),
    ("CC(C)N1CC(C)(C(=O)N(C)C)n2cc(-c3nnc(Cc4ccc(F)c(F)c4)s3)c(=O)c(O)c2C1=O (centres unmarked) [Example 157]", "nM", 29),
]

----------
MEASUREMENT TARGET: HIV-1 pNL4-3 integrase (Human immunodeficiency virus type 1 group M subtype B (isolate NY5) (HIV-1))
MEASUREMENT NOTES: Determination of enzyme (HIV integrase) inhibitory activity
REPORTED CONDITIONS: calculated from inhibition rate (fluorescence)
pIC50: −log10 of the molar value.

# COMPOUND, pIC50
data = [
    ("CC(C)N1C[C@@](C)(C(=O)NC2CC2)n2cc(-c3ncc(Cc4ccc(F)cc4)s3)c(=O)c(O)c2C1=O", 8.09),
    ("CC(C)CNC(=O)CC1CN(C(C)C)C(=O)c2c(O)c(=O)c(-c3ncc(Cc4ccc(F)cc4F)s3)cn21 (stereo not shown)", 7.89),
    ("CC[C@@H]1Cn2cc(-c3nnc(Cc4ccc(F)cc4)s3)c(=O)c(O)c2C(=O)N1CC", 8.06),
    ("COC[C@@H]1Cn2cc(-c3nnc(Cc4ccc(F)cc4F)s3)c(=O)c(O)c2C(=O)N1CC1CC1", 8.14),
]

----------
MEASUREMENT TARGET: HIV-1 pNL4-3 integrase (Human immunodeficiency virus type 1 group M subtype B (isolate NY5) (HIV-1), UniProt P12497)
MEASUREMENT NOTES: Determination of enzyme (HIV integrase) inhibitory activity
REPORTED CONDITIONS: calculated from inhibition rate (fluorescence)
Text: The following explains evaluation methods of the HIV integrase inhibitory activity of the compound of the present invention. A full-length gene sequence (Accession No.: M19921) of HIV-1 pNL4-3 integrase was inserted into restriction enzyme Nde I and Xho I sites of plasmid pET21a(+) (manufactured by Novagen) to construct an integrase expression vector pET21a-IN-Wild type. […]
Reported IC50 values for a set of compounds

# COMPOUND, IC50 / nM
records = [
    ("CCC(OC)[C@H]1CN(C(C)C)C(=O)c2c(O)c(=O)c(-c3nnc(Cc4ccc(F)cc4)s3)cn21 (stereo partly shown) [Example 383]", 7.9),
    ("CC(C)N1CC(CC(=O)NC2CC2)n2cc(-c3ncc(Cc4ccc(F)cc4F)s3)c(=O)c(O)c2C1=O (stereo not shown)", 11),
    ("CC(C)N1C(=O)c2c(O)c(=O)c(-c3nnc(Cc4ccc(F)cc4F)s3)cn2CC1CC(=O)N(C)C (stereo not shown)", 9.1),
    ("CCNC(=O)[C@]1(COC)CN(C(C)C)C(=O)c2c(O)c(=O)c(-c3ncc(Cc4ccc(F)cc4)s3)cn21", 15),
]

----------
MEASUREMENT TARGET: HIV-1 pNL4-3 integrase (Human immunodeficiency virus type 1 group M subtype B (isolate NY5) (HIV-1), UniProt P12497)
MEASUREMENT NOTES: Determination of enzyme (HIV integrase) inhibitory activity
REPORTED CONDITIONS: calculated from inhibition rate (fluorescence)
Reported IC50 values for a set of compounds

# SMILES DATA, UOM, IC50
data = [
    ("CC(C)N1C[C@@H](C)n2cc(-c3nnc(Cc4ccc(F)cc4F)s3)c(=O)c(O)c2C1=O", "nM", 9.1),
    ("COC[C@@H]1[C@H](C)n2cc(-c3ncc(Cc4ccc(F)cc4)s3)c(=O)c(O)c2C(=O)N1C(C)C", "nM", 10),
    ("COC[C@@H]1Cn2cc(-c3ncc(Cc4ccc(F)cc4F)s3)c(=O)c(O)c2C(=O)N1C(C)C", "nM", 5.8),
    ("COC[C@H]1[C@H](C)n2cc(-c3nnc(Cc4ccc(F)cc4)s3)c(=O)c(O)c2C(=O)N1C(C)C", "nM", 9.8),
    ("CCN1C(=O)c2c(O)c(=O)c(-c3nnc(Cc4ccc(F)cc4F)s3)cn2C[C@@H]1COC", "nM", 8.1),
]

----------
Reported IC50 values for a set of compounds
MEASUREMENT TARGET: HIV-1 pNL4-3 integrase (Human immunodeficiency virus type 1 group M subtype B (isolate NY5) (HIV-1), UniProt P12497)
MEASUREMENT NOTES: Determination of enzyme (HIV integrase) inhibitory activity
REPORTED CONDITIONS: calculated from inhibition rate (fluorescence)
MEASUREMENT KIND: IC50 (nM)

# COMPOUND, MEASURED NUMBER
records = [
    ("CCN1C(=O)c2c(O)c(=O)c(-c3ncc(Cc4ccc(F)cc4)s3)cn2C[C@@]1(C)C(=O)NC", 9.2),
    ("CCN1C[C@@H](COC)n2cc(-c3nnc(Cc4ccc(F)cc4F)s3)c(=O)c(O)c2C1=O", 8),
    ("CO[C@H](C)[C@@H]1CN(C(C)C)C(=O)c2c(O)c(=O)c(-c3ncc(Cc4ccc(F)cc4)s3)cn21", 11),
    ("COCCOC[C@H]1Cn2cc(-c3nnc(Cc4ccc(F)cc4)s3)c(=O)c(O)c2C(=O)N1C(C)C", 15),
    ("CC(C)CNC(=O)C1CN(C(C)C)C(=O)c2c(O)c(=O)c(-c3ncc(Cc4ccc(F)cc4F)s3)cn21 (stereo not shown)", 7.7),
    ("C[C@@H](C1CC1)N1C[C@](C)(C(=O)N(C)C)n2cc(-c3ncc(Cc4ccc(F)cc4)s3)c(=O)c(O)c2C1=O", 14),
    ("O=C1c2c(O)c(=O)c(-c3nnc(Cc4ccc(F)cc4F)s3)cn2C2(CCOCC2)CN1C1CC1", 9),
    ("COCC1Cn2cc(-c3ncc(Cc4ccc(F)cc4F)s3)c(=O)c(O)c2C(=O)N1CC(C)C (stereo not shown)", 9.2),
    ("CCNC(=O)[C@@]1(C)CN([C@@H](C)C2CC2)C(=O)c2c(O)c(=O)c(-c3ncc(Cc4ccc(F)cc4)s3)cn21", 16),
    ("CCN1C[C@H](COCCOC)n2cc(-c3nnc(Cc4ccc(F)cc4F)s3)c(=O)c(O)c2C1=O", 11),
    ("COCCOC[C@@]1(C)CN(C2CC2)C(=O)c2c(O)c(=O)c(-c3nnc(Cc4ccc(F)cc4)s3)cn21", 20),
    ("CC(C)N1CC2(CC2)n2cc(-c3nnc(Cc4ccc(F)cc4)s3)c(=O)c(O)c2C1=O", 9.5),
    ("CCN1C(=O)c2c(O)c(=O)c(-c3nnc(Cc4ccc(F)cc4)s3)cn2CC1(C)C", 6.6),
    ("CCOC[C@H]1CN(C(C)C)C(=O)c2c(O)c(=O)c(-c3ncc(Cc4ccc(F)cc4)s3)cn21", 8),
    ("CC(C)N1CC(C)(C(=O)N2CCC2)n2cc(-c3ncc(Cc4ccc(F)cc4F)s3)c(=O)c(O)c2C1=O (stereo not shown)", 8.8),
    ("CCN1C[C@@](C)(C(=O)N2CCC2)n2cc(-c3ncc(Cc4ccc(F)cc4)s3)c(=O)c(O)c2C1=O", 11),
]

Data provenance: patent US10065950B2
